Experiment: chemical genetic growth profiling, strain panel (AID 1159580);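 also: tested at 20 µM; growth read once vehicle control cultures reached saturation at 30 °C; 1 = growth at the plate median or of vehicle wells; lower values mean less growth of the strain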
Settings: S. cerevisiae deletion strains, growth OD, locus YDL040C, strain nat1
The campaign covered roughly 5,500 compounds. About 2,000 (36%) were called active. About 18% were inconclusive and are not listed. Rule as the data show it: active = normalized growth mostly below about 0.91 (no sharp cut-off); inconclusive = no clear call, values can overlap the other calls; inactive = mostly above about 0.92. Some of the results follow.
# output must be one of TRUE (active), FALSE (inactive)

Known results for molecules:
molecule	class
CCC[C@@H]1C[C@@H](C(=O)N[C@H]([C@H]2O[C@H](SC)[C@H](O)[C@@H](O)[C@H]2O)[C@H](C)O)N(C)C1	FALSE
NNCc1ccccc1	FALSE
CC(=CC1CCC(C)C2CCC(C)=C12)C(=O)O (configuration not stated)	FALSE
CC(C)C1CCC(C(=O)N[C@@H](Cc2ccccc2)C(=O)O)CC1 (some centres not stated)	FALSE
CC(=O)O[C@@H]1C2CC[C@@H]3C1(C[C@@H](O)[C@@]1(O)[C@@H](C[C@H](O)C1(C)C)[C@]3(C)O)C[C@@]2(C)O (some centres not stated)	FALSE
CC(=O)Nc1c(I)cc(I)c(C(=O)O)c1I	FALSE
CC(=CC1CCC(C)C2C1=C(C)CC2O)C(=O)O (configuration not stated)	FALSE
CC(NC(C)(C)C)C(=O)c1cccc(Cl)c1 (configuration not stated)	FALSE
C=CC[C@@H]1/C=C(\C)C[C@H](C)C[C@H](OC)[C@H]2O[C@@](O)(C(=O)C(=O)N3CCCC[C@H]3C(=O)O[C@H](/C(C)=C/[C@@H]3CC[C@@H](O)[C@H](OC)C3)[C@H](C)[C@@H](O)CC1=O)[C@H](C)C[C@@H]2OC	FALSE
O=C(O)CCC(=O)OC[C@@H](NC(=O)C(Cl)Cl)[C@H](O)c1ccc([N+](=O)[O-])cc1	FALSE

What did the test return for COC(=O)C[C@H]1C(C)(C)[C@@H](OC(C)=O)[C@@H]2CC3=C4CC(=O)O[C@@H](c5ccoc5)[C@]4(C)CCC3[C@@]1(C)C2=O (some centres not stated) ? FALSE

What did the test return for CC(=O)OC[C@@]1(O)C[C@@]23CCC4c5ccoc5CC[C@]4(C)C2CC[C@@H]1C3 (some centres not stated) ? FALSE

What did the test return for ClC1C(Cl)C(Cl)C(Cl)C(Cl)C1Cl (configuration not stated) ? FALSE

---

Test: chemical genetic growth profiling, strain panel (AID 1159580)
Settings: S. cerevisiae deletion strains, growth OD, locus YOR001W, strain rrp6
Screen size: about 5,500 compounds; about 2,000 (36%) were called active. Inconclusive results (about 18%) are left out. Cut-off read from the data, not from the text of the source: active = normalized growth mostly below about 0.91 (no sharp cut-off); inconclusive = no clear call, values can overlap the other calls; inactive = mostly above about 0.92. The list shows a part of the results.
# output must be one of 1 = active, -1 = inactive

compound	class
Cc1cc(O)c2c(c1)C(=O)c1cccc(O)c1C2=O	-1
COc1ccc(-c2c(O)c3c(OC)c4c(cc3oc2=O)OC(C)(C)C=C4)cc1	-1

What did the test return for `O=c1c(O)c(-c2ccccc2)oc2cccc(O)c12` ? 1

What did the test return for `O=C(O)[C@H]1/C(=C/CO)O[C@@H]2CC(=O)N21` ? -1

What did the test return for `CCCN(CCC)c1c([N+](=O)[O-])cc(C(F)(F)F)cc1[N+](=O)[O-]` ? -1

What did the test return for `O=c1c(O)c(-c2ccccc2)oc2ccccc12` ? 1

What did the test return for `CC(=O)CCCCn1c(=O)c2c(ncn2C)n(C)c1=O` ? -1

What did the test return for `O=c1c(O)c(-c2ccccc2)oc2ccc3occc3c12` ? 1

---

Assay: chemical genetic growth profiling, strain panel (AID 1159580);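 also: tested at 20 µM; growth read once vehicle control cultures reached saturation at 30 °C; 1 = growth at the plate median or of vehicle wells; lower values mean less growth of the strain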
Conditions: S. cerevisiae deletion strains, growth OD, locus YBR171W, strain sec66, stronger effect = lower value
Out of some 5,500 compounds screened, about 2,000 (36%) were called active. Inconclusive results (about 18%) are left out. The list shows a part of the results.
measured metric: normalized growth
Keep the answer to the number alone.

molecule	normalized growth
C[C@H]1C(=O)CCC2[C@]3(C)CC[C@@]4(C)C5CC(C)(C)CC[C@]5(C)CC[C@]4(C)C3CC[C@@]21C (some centres undefined)	1
Cn1c(=O)[nH]c2nc[nH]c2c1=O	0.972
C[N+]12CCC(CC1)C(OC(=O)C(O)(c1ccccc1)c1ccccc1)C2 (centres undefined)	0.957
COc1cc([C@@H]2c3cc4c(cc3[C@H](O)[C@H]3COC(=O)[C@H]23)OCO4)cc(OC)c1OC	1.01

The molecule CC(C)C1CCC(C(=O)N[C@@H](Cc2ccccc2)C(=O)O)CC1 (some centres undefined) showed normalized growth equal to 0.962

The molecule Cc1cc2nc3c(=O)[nH]c(=O)nc-3n(CC(O)C(O)C(O)CO)c2cc1C (centres undefined) showed normalized growth equal to 0.962

The molecule `O=C(CCc1ccc(O)cc1)c1c(O)cc(O)cc1O` showed normalized growth equal to 1.02

The molecule COc1ccccc1OCC(O)COC(N)=O (centres undefined) showed normalized growth equal to 0.981

The molecule `COc1cc(OC)c2c(OC)c(-c3ccc4c(c3)OCO4)c(=O)oc2c1` showed normalized growth equal to 1

The molecule CC12CCC(OC(=O)c3ccccc3)CC1CCc1ccccc12 (centres undefined) showed normalized growth equal to 0.968

The molecule `O=C1C=CC(=O)c2c(O)c(Cl)c(Cl)c(O)c21` showed normalized growth equal to 0.0854

The molecule `COc1ccc(CC(=O)c2ccc(O)cc2O)cc1` showed normalized growth equal to 0.973

The molecule `O=C(O)[C@H]1/C(=C/CO)O[C@@H]2CC(=O)N21` showed normalized growth equal to 0.983

The molecule `NS(=O)(=O)c1cc2c(cc1Cl)NCNS2(=O)=O` showed normalized growth equal to 0.997

---

# key: entry, value: normalized growth
Assay: chemical genetic growth profiling, strain panel (AID 1159580);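 also: tested at 20 µM; growth read once vehicle control cultures reached saturation at 30 °C; 1 = growth at the plate median or of vehicle wells; lower values mean less growth of the strain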
Details: S. cerevisiae deletion strains, growth OD, strain TSCII, stronger effect = lower value
The campaign covered roughly 5,500 compounds. About 2,000 (36%) were called active. About 18% were inconclusive and are not listed. The list shows a part of the results.
Keep the answer to the number alone.

molecule	normalized growth
COC(=O)c1cccc(NS(=O)(=O)c2ccc(Cl)c(Cl)c2)c1	0.98
O=[N+]([O-])c1cc(C(F)(F)F)ccc1Sc1n[nH]c(-c2cc(Cl)cc(Cl)c2)n1	0.919
FC(F)(F)c1ccncc1-c1nc(-c2ccc(Cl)cc2)cs1	0.972
O=S(=O)(Nc1c(F)cccc1F)c1ccc(Cl)c(Cl)c1	0.93

The molecule `COc1ccc(OC)c2nc3c(nc12)C(=O)c1ccccc1-3` showed normalized growth equal to 0.968

The molecule `Cc1cc(C)c2cc(C(=O)NCCNc3ccc(C(F)(F)F)cn3)[nH]c2c1` showed normalized growth equal to 0.985

The molecule `O=[N+]([O-])c1ccc(Sc2ccccc2)cc1O` showed normalized growth equal to 0.906

The molecule `Cc1cc(N=Cc2cc(Cl)cc(Cl)c2O)no1` showed normalized growth equal to 0.96

The molecule `COc1ccc(Oc2ccc([N+](=O)[O-])cc2C(=O)O/N=C(/N)c2ccc(C(F)(F)F)cc2)cc1` showed normalized growth equal to 1

The molecule `Cn1ncc(-c2nc(-c3ccc(Cl)cc3)cs2)c1N` showed normalized growth equal to 0.933

The molecule `O=C(Nc1ccc(F)cc1F)c1cc(Cl)ccc1O` showed normalized growth equal to 0.934

The molecule `CC(C)Sc1c(Cl)cccc1NC(=O)Nc1cccc(C(F)(F)F)c1` showed normalized growth equal to 0.992

The molecule `NNC(=O)c1oc2nc(-c3ccccc3)cc(-c3ccccc3)c2c1N` showed normalized growth equal to 0.98

The molecule `O=S(=O)(Nc1cc(C(F)(F)F)cc(C(F)(F)F)c1)c1ccc(Cl)s1` showed normalized growth equal to 0.917

---

# key: entry, value: normalized growth
Test: chemical genetic growth profiling, strain panel (AID 1159580);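 also: tested at 20 µM; growth read once vehicle control cultures reached saturation at 30 °C; 1 = growth at the plate median or of vehicle wells; lower values mean less growth of the strain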
Conditions: S. cerevisiae deletion strains, growth OD, locus YOR069W, strain VPS5, stronger effect = lower value
Hit rate of the full screen: of about 5,500 compounds, about 2,000 (36%) were called active. About 18% were inconclusive and are not listed. This is one part of the list.
Keep the answer to the number alone.

Solved entries (count: 5):
compound	normalized growth
O=C(/C=C/c1ccc(O)cc1)c1ccc(O)cc1O	0.976
OC[C@H]1O[C@@H](Oc2ccc(O)cc2)[C@H](O)[C@@H](O)[C@@H]1O	1.01
COC(=O)C[C@H]1C(C)(C)[C@H](O)[C@@H]2CC3=C4CC(O)O[C@@H](c5ccoc5)[C@]4(C)CCC3[C@@]1(C)C2=O (some centres not stated)	0.986
Cn1c(=O)[nH]c2nc[nH]c2c1=O	1.01
O=C(/C=C/c1ccccc1)c1c(O)cc(O)cc1O	1.01

The compound `Cn1c(=O)[nH]c2ncn(C)c2c1=O` showed normalized growth equal to 1.01

The compound `COc1ccc(NS(=O)(=O)c2ccc(N)cc2)nn1` showed normalized growth equal to 1.01
